In this section we review reported IC50 values for a set of molecules.
- TGT: recombinant BRD4 BD1 (Homo sapiens, UniProt O60885)
- Construct: for recombinant BRD4 BD1 and BRD4 BD2 proteins
- EXPERIMENTAL PROTOCOL: Competitive fluorescence-polarization (FP) binding assay, BRD4 BD1; further: probe 1.5 nM
- CONDITION SUMMARY: competitive FP assay; protein 10 nM, probe […]; read-out: IC50 (nM) BRD4 BD1
Reply numerically in nM, unit not repeated.

Use these answered entries as a reference point.
COc1cc2c(cc1-c1c(C)noc1C)[nH]c1ncnc(Nc3nn(C)c4ccccc34)c12 ... 16.7
CCn1nccc1Nc1nc(C)nc2[nH]c3cc(-c4c(C)noc4C)c(OC)cc3c12 ... 31.7
COc1cc2c(cc1-c1c(C)noc1C)[nH]c1nc(C)nc(Nc3ccc(F)c(Cl)c3)c12 ... 92
COc1cc2c(cc1-c1c(C)noc1C)[nH]c1nc(C)nc(Nc3cncc(C)c3)c12 ... 58
COc1cc2c(cc1-c1c(C)noc1C)[nH]c1nc(C)nc(Nc3cccc4ncsc34)c12 ... 24

*Q* Give its IC50 value. Item: COc1cc2c(cc1-c1c(C)noc1C)[nH]c1nc(C)nc(Oc3cccnc3)c12
*A* 864

*Q* Give its IC50 value. Item: COc1cc2c(cc1-c1c(C)noc1C)[nH]c1nc(C)nc(Nc3cccc4c3CCN4)c12
*A* 35

*Q* Give its IC50 value. Item: COc1cc2c(cc1-c1c(C)noc1C)[nH]c1nc(C)nc(Nc3c(C)cnn3C3CCCC3)c12
*A* 5.6

====

- TGT: recombinant BRD4 BD1 (Homo sapiens, UniProt O60885)
- Construct: for recombinant BRD4 BD1 and BRD4 BD2 proteins
- EXPERIMENTAL PROTOCOL: Competitive fluorescence-polarization (FP) binding assay, BRD4 BD1; further: probe 1.5 nM
- CONDITION SUMMARY: competitive FP assay; protein 10 nM, probe […]; read-out: IC50 (nM) BRD4 BD1
ENDPOINT: IC50 (nM)
Reply numerically in nM, unit not repeated.

Use these answered entries as a reference point.
COc1cc(C)cc(Nc2nc(C)nc3[nH]c4cc(-c5c(C)noc5C)c(OC)cc4c23)c1 ... 17
COc1cc2c(cc1-c1c(C)noc1C)[nH]c1ccnc(Nc3cc(C4CC4)nn3C)c12 ... 10.5
CCn1nc(C)cc1Nc1nc(C)nc2[nH]c3cc(-c4c(C)noc4C)c(OC)cc3c12 ... 14

*Q* Give its IC50 value. Item: CCn1nc(C2CC2)cc1Nc1nc(C)nc2[nH]c3cc(-c4c(C)noc4C)c(OC)cc3c12
*A* 2.1

*Q* Give its IC50 value. Item: COc1cc2c(cc1-c1c(C)noc1C)[nH]c1nc(C)nc(Nc3ccccc3C(C)C)c12
*A* 15

*Q* Give its IC50 value. Item: COc1cc2c(cc1-c1c(C)noc1C)[nH]c1nc(C)nc(Nc3c(C)c(C)nn3C3CCC3)c12
*A* 10.5

*Q* Give its IC50 value. Item: COc1cc2c(cc1-c1c(C)noc1C)[nH]c1nc(C)nc(Nc3n[nH]c4ccccc34)c12
*A* 11

*Q* Give its IC50 value. Item: COc1cc2c(cc1-c1c(C)noc1C)[nH]c1nc(C)nc(Nc3c4c(nn3C3CC3)CCC4)c12
*A* 7.9

*Q* Give its IC50 value. Item: COc1cc2c(cc1-c1c(C)noc1C)[nH]c1nc(C)nc(Nc3sc(C)nc3C)c12
*A* 7.9
